Assay Method Text: binders of probe aFSTL3 on microarray, primary screen, stem cell growth factor project, biochemical, small-molecule microarray, fluorescence 635/667 (AID 1064);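 note: measures binding of the biotinylated anti-FSTL3 antibody to printed compounds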
Condition Info: higher = more signal
# cutoff 0.5 applies to composite z-score; >= gives fulfilled, < gives not fulfilled

For orientation, consider the following solved cases.
Compound | Cat
C=C(CCCC)/C(=C/C[C@@H](OC(=O)c1ccncc1)c1ccc(OCCO)cc1)c1cnc2ccccc2c1 | not fulfilled
C=CCN1C(=O)[C@@]2(O[C@@H](CCO)[C@H]([Si](C)(C)c3ccc(OC)cc3)[C@H]2C)c2cc(N3C(=O)c4cccc5cccc3c45)ccc21 | not fulfilled
COc1ccc([Si](C)(C)[C@H]2[C@H](CC(=O)N(CCO)Cc3ccccc3)O[C@@]3(C(=O)N(Cc4ccc(N5CCC5=O)cc4)c4ccccc43)[C@@H]2C)cc1 | not fulfilled
CCCCC(=C=CC[C@H](O)c1cccc(OCCO)c1)CCO | not fulfilled
COC(=O)C(CC#Cc1ccc2c(c1)[C@]1(C(=O)N2)[C@H](C(=O)O)[C@H]2C(=O)O[C@H](c3ccccc3)[C@H](c3ccccc3)N2[C@@H]1c1ccc(OCCO)cc1)C(=O)OC | not fulfilled

Please check the record COCCCNC(=O)[C@@]1(CCS(=O)(=O)c2ccccc2)N=C(c2ccc(OCCCO)cc2)O[C@H]1c1ccccc1CN=[N+]=[N-] and state if its composite z-score is at or above 0.5.
fulfilled

Please check the record COC(=O)C1=CC(c2ccc(CO)cc2)=CC(c2cccs2)N(C)C=C1C(=O)OC (stereo unspecified) and state if its composite z-score is at or above 0.5.
fulfilled

---

Test system: Sonic hedgehog protein (Shh)
Assay Method Text: small-molecule binders of Shh protein, primary screen, biochemical, small-molecule microarray, 635/667 nm fluorescence (AID 1151);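 note: Shh protein binding to compounds spotted on small-molecule microarray slides; score combines spot fluorescence intensity with signal-to-noise across triplicate slides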
Condition Info: small-molecule microarray binding, 635 nm fluorescence; higher = more signal
Measured Parameter: composite z-score
// return just the number, without any unit appended

Worked examples, 5 compounds total:
Compound | composite z-score
CC(C)C(=C=CC[C@H](O)c1ccc(OCCO)cc1)C[C@H](O)COCc1ccccc1 | 1.96
CC(C)C(CO)N1C(=O)[C@@H]2[C@H]3C(=O)OCC=C[C@H]3OC23C=CCN(Cc2ccccc2)C(=O)[C@@H]13 (some centres not stated) | 0.565
C=CCNC(=O)[C@@H]1[C@H]2C(=O)O[C@H](c3ccccc3)[C@H](c3ccccc3)N2[C@H](c2ccc(O)cc2)[C@@]12C(=O)Nc1ccccc12 | 1.05
C[N+](C)(C)CCCCNC(=O)[C@@H]1C[C@@H]2C(=O)NCC(=O)N2[C@@H]1c1cccc(OCCO)c1 | 2.16
COCCOC(=O)N1C(=O)[C@@]2(c3cc(C#CC4(O)CCCCCC4)ccc31)[C@H](C(=O)NC[C@H](O)c1ccccc1)[C@H]1C(=O)O[C@H](c3ccccc3)[C@H](c3ccccc3)N1[C@@H]2c1ccccc1OCCO | 1.9

// sample CO[C@H]1O[C@H](CO)[C@@H](OC(=O)Nc2ccccc2)[C@H](OC(=O)Nc2ccc3c(c2)OCO3)[C@H]1OC(=O)Nc1ccc2c(c1)OCO2 , its composite z-score was 0.739

// sample COC(=O)C1=CC(CCCO)=CC(C2CC2)N(Cc2cc3c(cc2Br)OCO3)C=C1C(=O)OC (configuration not stated) , its composite z-score was -0.593

---

composite z-score for assorted compounds
Test system: Fibrinogen (Alexa647-labelled)
Assay Method Text: fibrinogen binders on compound microarrays, profiling panel, artefact control for SMM control-protein annotation, biochemical, small-molecule microarray, 635/667 nm fluorescence (AID 1131);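 note: z-score merges 667 nm fluorescence with per-spot signal-to-noise over triplicate slides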
Condition Info: fibrinogen-A647 binding fluorescence, higher = more signal
// return just the number, without any unit appended

Worked examples, 5 compounds total:
Compound Smiles | composite z-score
O=C1O[C@H](c2ccccc2)[C@H](c2ccccc2)N2[C@H]1[C@@H](C(=O)NC[C@H](O)c1ccccc1)[C@]1(C(=O)Nc3ccc(C#CC4(O)CCCCCC4)cc31)[C@H]2c1ccc(O)cc1 | 0.574
O=C1N(CCS(=O)(=O)c2ccccc2)Cc2ccccc2[C@@H]2OC(c3ccc(OCCCO)cc3)=N[C@]12Cc1ccccc1 | 0.988
COc1ccc([Si](C)(C)[C@@H]2[C@@H](CCn3cc(CCO)nn3)O[C@]3(C(=O)N(Cc4ccc(N5C(=O)c6cccc7cccc5c67)cc4)c4ccccc43)[C@H]2C)cc1 | 0.688
C=CCNC(=O)[C@H]1[C@@H]2C(=O)O[C@@H](c3ccccc3)[C@@H](c3ccccc3)N2[C@@H](c2ccccc2OCCO)[C@]12C(=O)N(C(=O)OCCOC)c1ccc(C#CCCO)cc12 | 0.614
C=C(C(=O)CC[C@H](OC(C)=O)c1ccc(CO)o1)C(C)C | 0.4

# input for lookup
Fibrinogen (Alexa647-labelled) assay, compound COCCCNC(=O)[C@@]1(Cc2ccccc2CN=[N+]=[N-])COC(c2ccc(OCCCO)cc2)=N1 , recorded composite z-score = 0.479

---

Assay Method Text: binders of probe aFST on microarray, primary screen, stem cell growth factor project, biochemical, small-molecule microarray, fluorescence 635/667 (AID 1086);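 note: score merges 667 nm fluorescence with signal-to-noise of each printed compound spot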
Condition Info: higher = more signal
Measured Parameter: composite z-score

Worked examples, 5 molecules total:
Molecule | Measured Parameter | Result
CCCCC(=C=CC[C@@H](O)c1ccc(OCCO)cc1)C[C@@H](O)c1cc(Cl)cc(Cl)c1O | composite z-score | 0.0049
Cc1ccc(S[C@]2(C(=O)NC3CC3)CC(=O)N(Cc3ccccc3C(F)(F)F)[C@@H]2c2ccc(CO)cc2I)cc1 | composite z-score | 0.0584
C=C(/C(=C/C[C@H](OC(C)=O)c1cccc(OCCO)c1)c1cc(C(=O)OC)ccc1OC)C(C)C | composite z-score | -0.24
O=C1O[C@H](c2ccccc2)[C@H](c2ccccc2)N2[C@H]1[C@@H](C(=O)NC[C@H](O)c1ccccc1)[C@]1(C(=O)Nc3ccc(C#CC4(O)CCCCCC4)cc31)[C@H]2c1ccc(O)cc1 | composite z-score | 0.837
C#CCOc1ccc(C[C@H]2C(=O)O[C@H](Cc3ccccc3)[C@H](/C=C/C3CC3)N2CC#C)cc1 | composite z-score | -0.652

// sample O=C(N1CCCCC1)[C@@]1(Cc2ccccc2)N=C(c2ccc(OCCCO)cc2)O[C@H]1c1ccccc1 , its composite z-score was 1.52

// sample C=CCC(OC(C)=O)[C@@H]1[C@@H](N(Cc2cc3ccccc3o2)C(=O)c2ccc(-c3ccccc3)cc2)c2cc(OCCCO)ccc2N1C(=O)c1ccc(-c2ccccc2)cc1 (some centres not stated) , its composite z-score was 0.105

---

Assay Target: NADPH oxidase 5 (Homo sapiens)
Assay Method Text: NOX5-dependent H2O2 signal modulators, primary screen, NOX inhibitor project, cell-based, HEK293-NOX5, Amplex Red fluorescence (AID 1161)
Condition Info: HEK293-NOX5, ionomycin, 45 min, higher = more signal
Measured Parameter: z-score

Worked examples, 3 compounds total:
Compound | z-score
COCCOC(=O)N1C(=O)[C@@]2(c3cc(C#CC4(O)CCCCCC4)ccc31)[C@H](c1ccccc1OCCO)N1[C@H](c3ccccc3)[C@H](c3ccccc3)OC(=O)[C@H]1[C@@H]2C(=O)Nc1nc2ccccc2s1 | 0.339
C=C[C@H](OC)[C@@H](OC(=O)Nc1ccc(OC)cc1)c1ccc(OC)c(O)c1 | -2
CCOC(=O)C[C@H]1[C@H](OC(=O)c2cc3ccccc3oc2=O)[C@@H](NC(=O)c2ccccc2)c2cc(OCCCO)ccc2N1C(=O)Cc1ccc(OC)cc1 | 0.874

// sample O=C(O)[C@H]1C[C@H]2C(=O)N[C@@H](Cc3ccccc3)C(=O)N2[C@H]1c1ccc(O)cc1 , its z-score was 2.01

// sample CCCCC(=C=CC[C@H](O)c1cccc(OCCO)c1)CCO , its z-score was -1.64

// sample CC(C)[Si](C#C[Si](C(C)C)(C(C)C)C(C)C)(O[C@H](C)c1cn([C@H](C)c2ccccc2)nn1)C(C)C , its z-score was 0.265

// sample O=C1O[C@@H](c2ccccc2)[C@@H](c2ccccc2)N2[C@@H](c3ccc(OCCO)cc3)[C@]3(C(=O)Nc4ccc(C#CC5(O)CCCCCC5)cc43)[C@@H](C(=O)NC[C@H](O)c3ccccc3)[C@H]12 , its z-score was 0.427

// sample COc1ccc(C(=O)Nc2cccc(CN3C(=O)[C@@]4(O[C@@H](CCO)[C@H]([Si](C)(C)c5ccc(OC)cc5)[C@H]4C)c4ccccc43)c2)cc1 , its z-score was -2.96

// sample COc1ccc([Si](C)(C)[C@H]2[C@H](CC(=O)N3Cc4ccccc4C[C@H]3CO)O[C@@]3(C(=O)N(Cc4cccc(N5C(=O)COc6ccccc65)c4)c4ccccc43)[C@@H]2C)cc1 , its z-score was -2.34

// sample CCCCCCC#C[Si](O[C@H](c1ccccc1)c1cn(Cc2ccccc2)nn1)(C(C)C)C(C)C , its z-score was -1.87

// sample C=CCN1C(=O)[C@]2(O[C@H](CCn3cc([C@H](O)c4ccccc4)nn3)[C@@H]([Si](C)(C)c3ccc(OC)cc3)[C@@H]2C)c2cc(N3CCOC3=O)ccc21 , its z-score was -2.66

// sample O=C(NC1CC1)[C@@H]1c2ccccc2C(=O)N(Cc2ccccc2C(F)(F)F)[C@H]1c1ccc(CO)cc1 , its z-score was 1.26

// sample CCN(CC)c1ccc(N2CC=CC34O[C@@H]5C=CCOC(=O)[C@@H]5[C@H]3C(=O)N(C(CO)C(C)C)[C@@H]4C2=O)cc1 (some centres undefined) , its z-score was 1.23

// sample COC(=O)C1=CC(c2ccc(CO)cc2)=CC(c2cccs2)N(C)C=C1C(=O)OC (centres undefined) , its z-score was -1.44
